Recorded measurements of viability at 50 µM, one per entry
Experiment: in vitro
Conditions: human, % of cell viability compared to control, 2. measurement, HepG2, 50 µM
Express it in %; write the number only.

Illustrative cases are given below, each with its answer.
molecule | readout_label | unit_descriptor | measured_result
COc1ccc2cc3[n+](cc2c1OCc1cccc(Cl)c1)CCc1cc2c(cc1-3)OCO2 [16h, 9-O-(3-chlorbenzyl)berberine chloride] | viability at 50 µM | % | 12.8
COc1ccc2cc3[n+](cc2c1OCc1cccc(C)c1)CCc1cc2c(cc1-3)OCO2 [16c, 9-O-(3-methylbenzyl)berberine chloride] | viability at 50 µM | % | 47.9
COc1ccc2cc3[n+](cc2c1OCc1ccccc1Br)CCc1cc2c(cc1-3)OCO2 [16e, 9-O-(2-brombenzyl)berberine chloride] | viability at 50 µM | % | 2.08
COc1ccc2cc3[n+](cc2c1OCc1ccccc1)CCc1cc2c(cc1-3)OCO2 [16a, 9-O-benzylberberine chloride] | viability at 50 µM | % | 42.1
COc1ccc2cc3[n+](cc2c1OCc1cccc(Br)c1)CCc1cc2c(cc1-3)OCO2 [16f, 9-O-(3-brombenzyl)berberine chloride] | viability at 50 µM | % | 32.8

Here is another molecule to look at.
Would you kindly share the measured viability at 50 µM for COc1ccc2cc3[n+](cc2c1OCc1ccc(Cl)cc1)CCc1cc2c(cc1-3)OCO2 [16i, 9-O-(4-chlorbenzyl)berberine chloride] ?
3.4
